target: Androgen Receptor/SRC-1 Co-activator, AR (gene 367) (UniProt P10275); assay: OT_AR_ARSRC1_0480: Odyssey Thera (OT) 8-hour HEK293T Protein-Complementation Assay for Androgen Receptor/SRC-1 Co-activator (AID 2283354);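 further: hits raise the complementation signal above DMSO so AC50 marks enhancers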
Sequence (P10275 whole entry, looked up): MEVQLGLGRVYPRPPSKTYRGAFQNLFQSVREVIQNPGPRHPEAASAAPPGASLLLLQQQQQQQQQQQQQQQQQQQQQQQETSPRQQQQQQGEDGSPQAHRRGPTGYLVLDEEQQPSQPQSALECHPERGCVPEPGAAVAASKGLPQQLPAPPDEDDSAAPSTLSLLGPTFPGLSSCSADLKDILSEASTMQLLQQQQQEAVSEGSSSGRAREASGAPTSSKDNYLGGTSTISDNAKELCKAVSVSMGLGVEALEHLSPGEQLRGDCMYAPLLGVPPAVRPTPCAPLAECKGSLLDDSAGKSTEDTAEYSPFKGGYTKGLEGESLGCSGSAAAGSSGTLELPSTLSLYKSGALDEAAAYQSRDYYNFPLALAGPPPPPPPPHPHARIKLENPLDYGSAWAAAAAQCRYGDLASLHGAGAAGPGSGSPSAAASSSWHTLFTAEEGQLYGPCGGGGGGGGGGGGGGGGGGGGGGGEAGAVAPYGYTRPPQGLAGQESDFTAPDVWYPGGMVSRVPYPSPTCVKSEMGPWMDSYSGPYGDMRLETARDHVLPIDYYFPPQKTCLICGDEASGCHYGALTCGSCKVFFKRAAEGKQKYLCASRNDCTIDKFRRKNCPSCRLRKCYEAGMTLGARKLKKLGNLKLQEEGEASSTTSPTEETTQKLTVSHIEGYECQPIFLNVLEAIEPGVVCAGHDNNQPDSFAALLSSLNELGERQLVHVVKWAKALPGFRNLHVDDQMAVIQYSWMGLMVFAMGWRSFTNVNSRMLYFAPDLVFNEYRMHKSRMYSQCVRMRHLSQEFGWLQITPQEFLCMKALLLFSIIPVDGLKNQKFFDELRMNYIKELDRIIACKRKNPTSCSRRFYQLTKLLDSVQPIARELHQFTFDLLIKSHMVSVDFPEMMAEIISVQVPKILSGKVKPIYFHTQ
Inconclusive results are not listed. The source made the active and inactive calls. How the source made its calls: active means hit-call score of the fitted dose curve at least 0.9, where 1 is the maximum; inconclusive means response in the unintended direction; inactive means score below 0.9.
Response enum: active, inactive

Answered examples (3):
[
  {
    "molecule": "CC(CC=O)CCCC(C)(C)O (configuration not stated)",
    "label class": "inactive"
  },
  {
    "molecule": "CCCCC/C=C\\CCC=O",
    "label class": "inactive"
  },
  {
    "molecule": "Oc1ccc(Cl)cc1Cc1cc(Cl)ccc1O",
    "label class": "active"
  }
]

Task: # outcome recorded in this test, key = `CC(C)=CCC[C@H](C)CCO`
Result: inactive

Task: Identify the outcome logged in this assay for the molecule shown: `CC(C)c1ccc2c(C(C)C)cc(C(C)C)c(S(=O)(=O)O)c2c1`
Result: inactive

Task: I would be grateful if you could indicate the recorded call for `CC(C)(C)c1ccc(-c2ccc(C(C)(C)C)cc2)cc1` .
Result: inactive

Task: // return assay outcome for `O=c1cc(-c2ccccc2)oc2ccccc12`
Result: inactive
